These measurements were taken from patent US7135470B2.

Biological target: purified recombinant human IKKb (Homo sapiens)
Sequence (O14920 1-756): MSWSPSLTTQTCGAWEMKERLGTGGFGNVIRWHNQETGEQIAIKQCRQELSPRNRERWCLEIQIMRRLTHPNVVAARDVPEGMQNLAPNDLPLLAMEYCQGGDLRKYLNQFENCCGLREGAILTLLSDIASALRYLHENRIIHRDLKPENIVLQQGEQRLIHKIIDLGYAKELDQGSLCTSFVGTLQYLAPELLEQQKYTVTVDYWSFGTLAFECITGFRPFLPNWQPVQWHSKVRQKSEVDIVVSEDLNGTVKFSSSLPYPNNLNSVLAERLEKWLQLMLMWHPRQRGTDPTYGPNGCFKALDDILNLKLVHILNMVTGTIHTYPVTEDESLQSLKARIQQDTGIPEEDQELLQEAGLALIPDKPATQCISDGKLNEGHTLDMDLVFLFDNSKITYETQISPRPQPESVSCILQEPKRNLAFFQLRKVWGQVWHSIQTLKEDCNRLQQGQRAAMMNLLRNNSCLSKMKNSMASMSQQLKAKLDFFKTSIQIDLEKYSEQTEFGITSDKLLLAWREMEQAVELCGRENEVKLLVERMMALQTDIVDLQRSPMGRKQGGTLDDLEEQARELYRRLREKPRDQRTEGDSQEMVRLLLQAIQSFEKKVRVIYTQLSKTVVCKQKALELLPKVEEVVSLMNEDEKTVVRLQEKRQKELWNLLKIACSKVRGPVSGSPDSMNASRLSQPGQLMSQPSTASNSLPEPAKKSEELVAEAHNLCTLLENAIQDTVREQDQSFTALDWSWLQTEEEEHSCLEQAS
Experiment: IKKb kinase assay, incorporation of radiolabeled 33P gATP into Biotin-peptide substrate derived from IkB-alpha
Settings: recombinant human IKKb 25 nM, ATP 10 μM, peptide substrate 30 μM, 30 minutes at 30° C.

chem-smiles: NC(=O)c1nnc(N)c2cc(-c3ccc(F)cc3)sc12
IC50: < 1000 nM
